Provide the recorded growth inhibition for the entries that follow.
assay.name: NCI Yeast Anticancer Drug Screen. Data for the mec2-1 strain (AID 157)
reported.conditions: S. cerevisiae mec2-1 strain, at 100.0 µM, active compounds read high
Compounds without any hit were thinned out: in the full panel of roughly 79,000, 15% have a hit. Calls of active or inactive are those of the source. Cut-off read from the data, not from the text of the source: active = growth inhibition above about 70%; inactive = the rest.

Ask: Returns the measured growth inhibition for the input compound. Input: COc1cc(/C=C/c2sc3ccccc3[n+]2C)ccc1N(C)C
Reply: 98% (active)

Ask: Now consider O=S(=O)(c1cc(Cl)ccc1O)c1cc(Cl)ccc1O and answer again.
Reply: 100% (active)

Ask: Now consider CC(C)c1[nH]nc(C(N)=O)c1N=NN(C)C and answer again.
Reply: 61% (inactive)

Ask: Now consider O=C(/C=C\c1ccc([N+](=O)[O-])o1)Nc1ccc(Cl)cc1 and answer again.
Reply: 95% (active)

Ask: Now consider N#CC(=S)Nc1cccc(Cl)c1 and answer again.
Reply: 80% (active)

Ask: Now consider O=C(CCc1ccccc1)ON1C(=S)C(c2ccccc2)(c2ccccc2)N=C1Sc1ccccc1 and answer again.
Reply: 26% (inactive)

Ask: Now consider N#C/C(=C/c1c(Cl)cccc1Cl)C(N)=O and answer again.
Reply: 97% (active)

Ask: Now consider Cn1c2nc3ccccc3c-2nc2ccccc21 and answer again.
Reply: 98% (active)

Ask: Now consider O=C1C=CC(=O)N1c1ccc(I)cc1 and answer again.
Reply: 100% (active)

Ask: Now consider Clc1c(Cl)c(Cl)c2c(nnn2C2CCCO2)c1Cl (stereo not given) and answer again.
Reply: 76% (active)

Ask: Now consider CCCCCCCCCCCc1nc(N)n[nH]1 and answer again.
Reply: 93% (active)

Ask: Now consider CN(CC(=O)O)c1ccc(/C=C/c2ccnc3ccccc23)cc1 and answer again.
Reply: 16% (inactive)

Ask: Now consider CCc1[nH]nc(C(N)=O)c1N=NN(C)C and answer again.
Reply: 94% (active)

Ask: Now consider CCOC(=O)C1=C(C)NC(C)=C(C(=O)OCC)C1c1ccc(C)cc1 and answer again.
Reply: 95% (active)

Ask: Now consider Cc1ccc(Nc2c3c(c(C#N)c4nc5ccccc5n24)CCCC3)cc1 and answer again.
Reply: 73% (active)

Ask: Now consider Cc1ccc(N=Nc2ccc(O)c(C)c2)cc1 and answer again.
Reply: 79% (active)

Ask: Now consider Cc1cc(O)c2c(c1)C(=O)C=C(Br)C2=O and answer again.
Reply: 98% (active)

Ask: Now consider NC(=O)N1c2ccccc2C=Cc2ccccc21 and answer again.
Reply: -68% (inactive)

Ask: Now consider Cn1ncc2cc3c(Nc4ccc(Cl)cc4)cccc3nc21 and answer again.
Reply: 6% (inactive)

Ask: Now consider COCCCN(Cc1cc(OC)c(OC)c(OC)c1)C(=S)Nc1cccc(Cl)c1 and answer again.
Reply: 20% (inactive)

Ask: Now consider O=Nn1c2ccccc2c2ccccc21 and answer again.
Reply: 65% (inactive)

Ask: Now consider CCCCCCCCN1C(=O)c2ccccc2C1=O and answer again.
Reply: 0% (inactive)

Ask: Now consider CC(C)(C)c1ccc(O)c(C(c2ccc([N+](=O)[O-])cc2)c2cc(C(C)(C)C)ccc2O)c1 and answer again.
Reply: 92% (active)

Ask: Now consider S=C(S)NCC1CCC(CNC(=S)S)CC1 (stereo not given) and answer again.
Reply: 94% (active)

Ask: Now consider CCCCCCCCCCCCCC(=O)OC(C)CCC1CCCO1 (stereo not given) and answer again.
Reply: -1% (inactive)
